Test: Stability in human plasma assessed as compound remaining at 50 uM at 37 degC after 60 mins by LC-MS/MS method
Type: ADME, cell-free
Conditions: read-out: Stability
observation.type: remaining at 1 h, 50 µM (%)

CCC(CC)C(=O)OCOC(=O)C1=C(S[C@@H]2CN[C@H](C(=O)Nc3cccc(C(=O)O)c3)C2)[C@H](C)[C@@H]2[C@@H]([C@@H](C)O)C(=O)N12 | 82
C[C@@H](O)[C@H]1C(=O)N2C(C(=O)OCc3oc(=O)oc3C(C)(C)C)=C(S[C@@H]3CN[C@H](C(=O)Nc4cccc(C(=O)OCc5oc(=O)oc5C(C)(C)C)c4)C3)[C@H](C)[C@H]12 | 10

I: Cc1oc(=O)oc1COC(=O)N1C[C@@H]2C[C@H]1C(=O)Nc1cccc(c1)C(=O)OC/C=C\COC(=O)C1=C(S2)[C@H](C)[C@@H]2[C@@H]([C@@H](C)O)C(=O)N12
II: C[C@@H](O)[C@H]1C(=O)N2C3=C(S[C@@H]4CN[C@@H](C4)C(=O)Nc4cccc(c4)C(=O)OCCCOC3=O)[C@H](C)[C@H]12
III: CCOC(=O)OCOC(=O)C1=C(S[C@@H]2CN[C@H](C(=O)Nc3cccc(C(=O)O)c3)C2)[C@H](C)[C@@H]2[C@@H]([C@@H](C)O)C(=O)N12
Ask: Put these in order: smallest remaining at 1 h, 50 µM first, largest last. In your reply, arrange the labels in the requested order.
Reply: III, I, II
(III: 10%, I: 20%, II: 34%)
